- protocolNotes: Skin PAMPA (Parallel Artificial Membrane Permeability Assay) permeation from a cosmetic formulation
- Format: in vitro ADME
- setupConditions: 0.05% in formulation, no penetration enhancer; 240 min
Checkbox rule: Mean amount per ml acceptor liquid lower than 0.2 μg per ml = YES; Mean amount per ml acceptor liquid not lower than 0.2 μg per ml = NO.

Illustrative cases are given below, each with its answer.
O=C(C=Cc1ccc(O)c(O)c1)Nc1ccc(O)cc1C(=O)O [Avn C] ... NO
O=C(C=Cc1ccc(O)cc1)Nc1ccc(O)cc1C(=O)O [Avn A] ... NO
O=C(CCc1ccc(O)cc1)Nc1ccccc1C(=O)O [Dihydroavenanthramide D, reference compound] ... NO
O=C(/C=C/C=C/c1ccc(O)cc1)Nc1ccc(O)cc1C(=O)O [Avn L] ... YES

Now consider the entry below.
q: Threshold test, Mean amount per ml acceptor liquid < 0.2 μg per ml: COc1cc(C=CC(=O)Nc2ccc(O)cc2C(=O)O)ccc1O [Avn B]
a: YES

----------
- protocolNotes: Skin PAMPA (Parallel Artificial Membrane Permeability Assay) permeation from a cosmetic formulation
- Assay type: in vitro ADME
- setupConditions: 0.05% in formulation, no penetration enhancer; 60 min
resultType: Mean amount per ml acceptor liquid (μg per ml)
// note: answer is a bare numeric in μg per ml

O=C(C=Cc1ccc(O)cc1)Nc1ccc(O)cc1C(=O)O ... 0.069
O=C(/C=C/C=C/c1ccc(O)cc1)Nc1ccc(O)cc1C(=O)O ... 0
O=C(CCc1ccc(O)cc1)Nc1ccccc1C(=O)O [Dihydroavenanthramide D, reference compound] ... 0.225
O=C(C=Cc1ccc(O)c(O)c1)Nc1ccc(O)cc1C(=O)O ... 0.321

Kindly review the next compound as well.
q: Suppose we examine the compound "COc1cc(C=CC(=O)Nc2ccc(O)cc2C(=O)O)ccc1O" ; what Mean amount per ml acceptor liquid value has been reported?
a: 0.038

----------
Each entry below lists one item and its recorded Mean amount per ml acceptor liquid value.
- protocolNotes: Skin PAMPA (Parallel Artificial Membrane Permeability Assay) permeation from a cosmetic formulation
- Type: in vitro ADME
- setupConditions: 0.05% in formulation, no penetration enhancer; 0 min
// note: answer is a bare numeric in μg per ml

COc1cc(C=CC(=O)Nc2ccc(O)cc2C(=O)O)ccc1O [Avn B] ... 0
O=C(/C=C/C=C/c1ccc(O)cc1)Nc1ccc(O)cc1C(=O)O [Avn L] ... 0
O=C(C=Cc1ccc(O)c(O)c1)Nc1ccc(O)cc1C(=O)O [Avn C] ... 0

q: Suppose we examine the compound O=C(C=Cc1ccc(O)cc1)Nc1ccc(O)cc1C(=O)O [Avn A] ; what Mean amount per ml acceptor liquid value has been reported?
a: 0

q: And for O=C(CCc1ccc(O)cc1)Nc1ccccc1C(=O)O [Dihydroavenanthramide D, reference compound] ?
a: 0.000
